Reported values of IC50 for individual entries
System: ACAT in HepG2 cell
Assay: ACAT inhibiting activity in HepG2 cell
Assay type: cell-based
Details: 10 μg/ml 25-OH cholesterol, 18 hours, cholesterol ester per protein, read-out: HepG 2-Derived Enzyme IC50

| compound | IC50 |
| --- | --- |
| CC(C)c1cccc(C(C)C)c1NC(=O)CSc1nc2ccccc2[nH]1 [Example 23] | 12000 nM |
| CC(C)c1cccc(C(C)C)c1NC(=O)CCCSc1nc2ccccc2s1 [Example 44] | 2100 nM |
| CC(C)c1cccc(C(C)C)c1NC(=O)CCSc1nc2ccccc2o1 [Example 2] | 1200 nM |
| CCCCCCCCCCCCCCSCC(=O)Nc1c(C(C)C)cccc1C(C)C [Control (2), reference compound] | 1400 nM |
| CC(C)c1cccc(C(C)C)c1NC(=O)CSc1nc2ccccc2o1 [Example 1] | 1000 nM |
